// data source = the supplement of paper PMC11451515

Consider the following molecules and their measured cell viability readings.
Test system: NOMO1
protocol-summary: cell viability relative to DMSO control; higher = less cytotoxic
test-conditions: RPMI 5 mM glucose + 10% FBS; 48 h; 0.19 µM
Answer in %, number only, no unit symbol.

* CCCC[N+]1(C)[C@@H]2CC(OC(=O)[C@H](CO)c3ccccc3)C[C@H]1[C@@H]1O[C@@H]12 (stereo partly drawn) | 102

[in] Would you mind telling me what cell viability value was observed for CO[C@H]1C[C@H]2OC[C@@]2(OC(C)=O)[C@H]3[C@H](OC(=O)C4=CC=CC=C4)[C@]5(O)C[C@H](OC(=O)[C@H](O)[C@@H](NC(=O)OC(C)(C)C)C6=CC=CC=C6)/C(=C(/[C@@H](OC)C(=O)[C@]13C)C5(C)C)C ?
[out] 13.3

[in] Can you check Cc1ccc([S+](=O)([O-])NC(=O)NN2CC3CCCC3C2)cc1 (stereo not drawn) next?
[out] 99.5

[in] Can you check CCCCCCCN(CC)CCCC(O)c1ccc(NS(C)(=O)=O)cc1.CCCCCCCN(CC)CCCC(O)c1ccc(NS(C)(=O)=O)cc1.O=C(O)/C=C/C(=O)O (stereo not drawn) next?
[out] 106

[in] Can you check O=P1(NCCCl)OCCCN1CCCl (stereo not drawn) next?
[out] 89.2

[in] Can you check CC(C)C[C@@H](C(=O)N[C@H](C(=O)OC1CCCC1)c1ccccc1)[C@H](O)C(=O)NO next?
[out] 107

[in] Can you check C[C@]12CCC(=O)C(O)=C1CC[C@@H]1[C@@H]2CC[C@]2(C)C(=O)CC[C@@H]12 next?
[out] 110

[in] Can you check CN1CCN(CC1)C/2=N/C3=CC=CC=C3NC4=C2C=C(C)S4 next?
[out] 82.4

====

Consider the following compounds and their measured cell viability readings.
Tested on: NOMO1
protocol-summary: cell viability relative to DMSO control; higher = less cytotoxic
test-conditions: HPLM + 10% dialyzed FBS; 48 h; 15.4 µM
Answer in %, number only, no unit symbol.

See these solved cases before continuing.
• Cc1ccc([S+](=O)([O-])NC(=O)NN2CC3CCCC3C2)cc1 (stereo not drawn) = 53.4
• CNC(=O)c1cc(Oc2ccc(NC(=O)Nc3ccc(Cl)c(C(F)(F)F)c3)c(F)c2)ccn1 = 77.1
• COc1ccc(CC2SC(=O)NC2=O)cc1C(=O)NCc1ccc(C(F)(F)F)cc1 (stereo not drawn) = 82.1

[in] What is its cell viability for NOMO1? Entry: CC(C)(OCc1nn(Cc2ccccc2)c2ccccc12)C(=O)O
[out] 85.2

[in] Can you check CN1CCN(c2cc(C(=O)Nc3ccc4c(c3)-c3c(c(C(N)=O)nn3-c3ccc(F)cc3)CC4)c(Cl)cn2)CC1 next?
[out] 85.9

[in] Can you check CN1CCC(=C2c3ccccc3CCc3sccc32)CC1 next?
[out] 103

[in] Can you check CCN(CC)CCNC(=O)c1ccc2nc(-c3ccccc3)c(-c3ccc(CN4CCC(n5c(=O)[nH]c6ccccc65)CC4)cc3)nc2c1 next?
[out] 8.39

[in] Can you check O=C(O)CCc1ccc(NCc2cccc(Oc3ccccc3)c2)cc1 next?
[out] 117

====

Consider the following compounds and their measured cell viability readings.
Tested on: P12-Ichikawa
protocol-summary: cell viability relative to DMSO control; higher = less cytotoxic
test-conditions: HPLM + 10% dialyzed FBS; 48 h; 0.19 µM
Answer in %, number only, no unit symbol.

* CN1CCN(c2cc(C(=O)Nc3ccc4c(c3)-c3c(c(C(N)=O)nn3-c3ccc(F)cc3)CC4)c(Cl)cn2)CC1 | 107

Consider the record given below.
[in] Would you mind telling me what cell viability value was observed for Oc1ccc(-c2nc(-c3ccncc3)c(-c3ccc(F)cc3)[nH]2)cc1 ?
[out] 120
